Kindly supply the reported bioavailability values for the records listed here.
Assay Explanation: Oral bioavailability in rat at 2 mg/kg
Type: ADME, organism-based
Protocol Conditions: in vivo
The response must be a number in % with no trailing unit.

bioavailability reading for C[C@@H](C(=O)Nc1ccc(C[C@@H]2CC[C@H]([C@H](O)c3ccccc3)N2)cc1)n1ncccc1=O : 10

bioavailability reading for O=C(Nc1ccc(C[C@@H]2CC[C@H]([C@H](O)c3ccccc3)N2)cc1)[C@@H]1CCc2nccc(=O)n21 : 20

* * *

Test system: Canis familiaris
Assay Explanation: Dose normalized total AUC in dog at 2 mg/kg, po
Assay type: ADME, organism-based, Canis lupus familiaris
Protocol Conditions: in vivo
Attribute Measured: AUC/dose (nM·h/mg/kg)
The response must be a number in nM·h/mg/kg with no trailing unit.

AUC/dose reading for O=C(Nc1ccc(C[C@@H]2CC[C@H]([C@H](O)c3ccccc3)N2)cc1)[C@@H]1CCc2cccc(=O)n21 : 1500

AUC/dose reading for O=C(Nc1ccc(C[C@@H]2CC[C@H]([C@H](O)c3ccccc3)N2)cc1)[C@@H]1CCc2nccc(=O)n21 [VIBEGRON] : 1200

AUC/dose reading for O=S(=O)(Nc1ccc(CCNC[C@H](O)c2cccnc2)cc1)c1ccc(-c2nc(-c3ccc(C(F)(F)F)cc3)cs2)cc1 : 290

AUC/dose reading for C[C@@H](C(=O)Nc1ccc(C[C@@H]2CC[C@H]([C@H](O)c3ccccc3)N2)cc1)n1ncccc1=O : 290

AUC/dose reading for O=C(Cn1ncccc1=O)Nc1ccc(C[C@@H]2CC[C@H]([C@H](O)c3ccccc3)N2)cc1 : 1200

* * *

Assay Explanation: Solubility of the compound in fed-simulated intestinal fluid
Assay type: ADME
Protocol Conditions: fed-state simulated intestinal fluid
Attribute Measured: solubility

solubility reading for O=C(Nc1ccc(C[C@@H]2CC[C@H]([C@H](O)c3ccccc3)N2)cc1)[C@@H]1CCc2nccc(=O)n21 : > 4000 µg/mL

* * *

Assay Explanation: Induction of phospholidosis in human HepG2 cells incubated overnight by […] in presence of fluorescent labeled phospholipid probe NBD-PE
Assay type: cell-based
Protocol Conditions: read-out: A50
Labelling field: enter 1 (yes) if recorded AC50 is less than 9 µM. Enter 0 (no) if it equals or exceeds that cut-off.

Does this compound meet the criterion AC50 < 9 µM? O=C(Nc1ccc(C[C@@H]2CC[C@H]([C@H](O)c3ccccc3)N2)cc1)[C@@H]1CCc2cccc(=O)n21
0 (no)

Does this compound meet the criterion AC50 < 9 µM? O=C(Cn1cnc2ccccc2c1=O)Nc1ccc(C[C@@H]2CC[C@H]([C@H](O)c3ccccc3)N2)cc1
1 (yes)

Does this compound meet the criterion AC50 < 9 µM? O=C(Cn1ncccc1=O)Nc1ccc(C[C@@H]2CC[C@H]([C@H](O)c3ccccc3)N2)cc1
0 (no)

Does this compound meet the criterion AC50 < 9 µM? O=C(Cn1ccccc1=O)Nc1ccc(C[C@@H]2CC[C@H]([C@H](O)c3ccccc3)N2)cc1
0 (no)

Does this compound meet the criterion AC50 < 9 µM? C[C@@H](C(=O)Nc1ccc(C[C@@H]2CC[C@H]([C@H](O)c3ccccc3)N2)cc1)n1ncccc1=O
0 (no)

Does this compound meet the criterion AC50 < 9 µM? O=S(=O)(Nc1ccc(CCNC[C@H](O)c2cccnc2)cc1)c1ccc(-c2nc(-c3ccc(C(F)(F)F)cc3)cs2)cc1
1 (yes)

Does this compound meet the criterion AC50 < 9 µM? O=C(Nc1ccc(C[C@@H]2CC[C@H]([C@H](O)c3ccccc3)N2)cc1)[C@@H]1CCc2nccc(=O)n21 [VIBEGRON]
0 (no)

Does this compound meet the criterion AC50 < 9 µM? O=C(Nc1ccc(C[C@@H]2CC[C@H]([C@H](O)c3cccnc3)N2)cc1)[C@@H]1CCc2scnc21
0 (no)

* * *

Test Target: UniProt P20813
Sequence (P20813 whole entry): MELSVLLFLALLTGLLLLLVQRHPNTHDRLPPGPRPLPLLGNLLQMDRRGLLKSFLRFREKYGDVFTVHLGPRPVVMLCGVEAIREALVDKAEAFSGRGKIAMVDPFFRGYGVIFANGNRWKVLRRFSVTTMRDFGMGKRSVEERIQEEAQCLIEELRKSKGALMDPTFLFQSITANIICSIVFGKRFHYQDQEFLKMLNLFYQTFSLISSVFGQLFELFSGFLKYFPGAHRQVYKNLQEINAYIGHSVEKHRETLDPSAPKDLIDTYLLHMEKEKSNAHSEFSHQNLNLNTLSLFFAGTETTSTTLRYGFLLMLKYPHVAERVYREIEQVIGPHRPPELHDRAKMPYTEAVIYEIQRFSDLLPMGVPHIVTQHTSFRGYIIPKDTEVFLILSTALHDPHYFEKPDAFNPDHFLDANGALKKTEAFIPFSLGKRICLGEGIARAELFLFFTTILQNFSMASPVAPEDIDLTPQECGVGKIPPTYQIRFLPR
Attribute Measured: IC50

IC50 reading for O=C(Nc1ccc(C[C@@H]2CC[C@H]([C@H](O)c3ccccc3)N2)cc1)[C@@H]1CCc2nccc(=O)n21 [VIBEGRON] : > 100 µM

* * *

Kindly supply the reported logD values for the records listed here.
Assay Explanation: Distribution coefficient, logD of the compound at pH 7.4
Assay type: physicochemical
Protocol Conditions: octanol/water
Give the figure by itself; no unit, no explanation.

logD reading for O=C(Cn1cnc2ccccc2c1=O)Nc1ccc(C[C@@H]2CC[C@H]([C@H](O)c3ccccc3)N2)cc1 : 2

logD reading for O=C(Nc1ccc(C[C@@H]2CC[C@H]([C@H](O)c3cccnc3)N2)cc1)[C@@H]1CCc2scnc21 : 1.1

logD reading for O=C(Cn1cccnc1=O)Nc1ccc(C[C@@H]2CC[C@H]([C@H](O)c3ccccc3)N2)cc1 : 0.6

logD reading for O=C(Nc1ccc(C[C@@H]2CC[C@H]([C@H](O)c3cccnc3)N2)cc1)[C@@H]1CCc2ccnn21 : 0.9

* * *

Assay Explanation: Drug recovery in bile duct cannulated rat urine at 5 mg/kg, iv measured over 48 hrs
Format: ADME, organism-based
Protocol Conditions: read-out: Drug recovery
Attribute Measured: dose excreted at 48 h (%)
The response must be a number in % with no trailing unit.

dose excreted at 48 h reading for O=C(Nc1ccc(C[C@@H]2CC[C@H]([C@H](O)c3ccccc3)N2)cc1)[C@@H]1CCc2nccc(=O)n21 : 37

* * *

Attribute Measured: IC50 (µM)
The response must be a number in µM with no trailing unit.

Test item O=C(Nc1ccc(C[C@@H]2CC[C@H]([C@H](O)c3ccccc3)N2)cc1)[C@@H]1CCc2cccc(=O)n21 ; Sodium-dependent dopamine transporter (Homo sapiens); reported IC50 was 4.8

* * *

Test Target: Beta-3 adrenergic receptor (Rattus norvegicus)
Sequence (P26255 whole entry): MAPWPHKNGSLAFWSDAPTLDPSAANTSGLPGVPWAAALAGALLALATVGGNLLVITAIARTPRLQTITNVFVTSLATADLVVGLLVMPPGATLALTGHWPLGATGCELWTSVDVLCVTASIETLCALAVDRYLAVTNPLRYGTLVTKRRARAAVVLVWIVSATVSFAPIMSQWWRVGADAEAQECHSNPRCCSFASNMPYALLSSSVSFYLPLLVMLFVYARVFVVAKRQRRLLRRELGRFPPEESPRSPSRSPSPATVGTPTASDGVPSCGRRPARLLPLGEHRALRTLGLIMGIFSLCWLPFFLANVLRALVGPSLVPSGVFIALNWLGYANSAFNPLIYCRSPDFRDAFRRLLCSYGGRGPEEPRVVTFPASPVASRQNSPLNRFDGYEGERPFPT
Assay Explanation: Agonist activity at rat beta3 adrenergic receptor expressed in CHO cells assessed as accumulation of cAMP after 30 mins by TR-FRET assay in presence of 40% serum
Assay type: functional, cell-based
Attribute Measured: pEC50
Scale note: pEC50 = -log10(concentration in M).

pEC50 reading for O=C(Cn1ncccc1=O)Nc1ccc(C[C@@H]2CC[C@H]([C@H](O)c3ccccc3)N2)cc1 : 5.97

pEC50 reading for C[C@@H](C(=O)Nc1ccc(C[C@@H]2CC[C@H]([C@H](O)c3ccccc3)N2)cc1)n1ncccc1=O : 6.61

pEC50 reading for O=C(Nc1ccc(C[C@@H]2CC[C@H]([C@H](O)c3ccccc3)N2)cc1)[C@@H]1CCc2nccc(=O)n21 : 6.91

* * *

Assay Explanation: Fraction unbound in dog at 0.5 mg/kg, iv or 2 mg/kg, po
Format: ADME, organism-based, Canis lupus familiaris
Protocol Conditions: in vivo
Kindly supply the reported fraction unbound values for the records listed here.

fraction unbound reading for C[C@@H](C(=O)Nc1ccc(C[C@@H]2CC[C@H]([C@H](O)c3ccccc3)N2)cc1)n1ncccc1=O : 0.39

fraction unbound reading for O=S(=O)(Nc1ccc(CCNC[C@H](O)c2cccnc2)cc1)c1ccc(-c2nc(-c3ccc(C(F)(F)F)cc3)cs2)cc1 : ≤ 0.02

fraction unbound reading for O=C(Nc1ccc(C[C@@H]2CC[C@H]([C@H](O)c3ccccc3)N2)cc1)[C@@H]1CCc2nccc(=O)n21 [VIBEGRON] : 0.41

fraction unbound reading for O=C(Cn1ncccc1=O)Nc1ccc(C[C@@H]2CC[C@H]([C@H](O)c3ccccc3)N2)cc1 : 0.51

* * *

Assay Explanation: Drug recovery in bile duct cannulated rat feces at 5 mg/kg, iv measured over 48 hrs
Format: ADME, organism-based
Protocol Conditions: faeces, read-out: Drug recovery
Attribute Measured: dose excreted at 48 h
Record the result as a number with its unit.

dose excreted at 48 h reading for O=C(Nc1ccc(C[C@@H]2CC[C@H]([C@H](O)c3ccccc3)N2)cc1)[C@@H]1CCc2nccc(=O)n21 : 13%

* * *

Assay Explanation: Intrinsic clearance in rhesus monkey liver microsomes
Assay type: ADME, Macaca mulatta
Protocol Conditions: read-out: CLH
Attribute Measured: CLint scaled

CLint scaled reading for O=C(Nc1ccc(C[C@@H]2CC[C@H]([C@H](O)c3ccccc3)N2)cc1)[C@@H]1CCc2nccc(=O)n21 [VIBEGRON] : 18 mL/min/kg

CLint scaled reading for C[C@@H](C(=O)Nc1ccc(C[C@@H]2CC[C@H]([C@H](O)c3ccccc3)N2)cc1)n1ncccc1=O : 17 mL/min/kg

CLint scaled reading for O=C(Cn1ncccc1=O)Nc1ccc(C[C@@H]2CC[C@H]([C@H](O)c3ccccc3)N2)cc1 : < 10 mL/min/kg

CLint scaled reading for O=C(Nc1ccc(C[C@@H]2CC[C@H]([C@H](O)c3ccccc3)N2)cc1)[C@@H]1CCc2cccc(=O)n21 : 137 mL/min/kg

* * *

Assay Explanation: Stability in rhesus monkey plasma assessed as parent compound remaining at 24 hrs by LC-MS analysis
Type: ADME, cell-free, Macaca mulatta
Protocol Conditions: read-out: Stability
Labelling field: enter met if recorded remaining at 24 h is less than 90%. Enter not met if it equals or exceeds that cut-off.

Does this compound meet the criterion remaining at 24 h < 90%? C[C@@H](C(=O)Nc1ccc(C[C@@H]2CC[C@H]([C@H](O)c3ccccc3)N2)cc1)n1ncccc1=O
not met

Does this compound meet the criterion remaining at 24 h < 90%? O=C(Cn1ncccc1=O)Nc1ccc(C[C@@H]2CC[C@H]([C@H](O)c3ccccc3)N2)cc1
not met

Does this compound meet the criterion remaining at 24 h < 90%? O=C(Nc1ccc(C[C@@H]2CC[C@H]([C@H](O)c3ccccc3)N2)cc1)[C@@H]1CCc2cccc(=O)n21
met

Does this compound meet the criterion remaining at 24 h < 90%? O=C(Nc1ccc(C[C@@H]2CC[C@H]([C@H](O)c3ccccc3)N2)cc1)[C@@H]1CCc2nccc(=O)n21
not met

Does this compound meet the criterion remaining at 24 h < 90%? O=C(Nc1ccc(C[C@@H]2CC[C@H]([C@H](O)c3cccnc3)N2)cc1)[C@@H]1CCc2ccnn21
met

Entry source: ChEMBL document CHEMBL3763146
